# target entity: T1, Smaug 70-281 (Drosophila, UniProt Q23972 70-281)
# T1 sequence (looked up): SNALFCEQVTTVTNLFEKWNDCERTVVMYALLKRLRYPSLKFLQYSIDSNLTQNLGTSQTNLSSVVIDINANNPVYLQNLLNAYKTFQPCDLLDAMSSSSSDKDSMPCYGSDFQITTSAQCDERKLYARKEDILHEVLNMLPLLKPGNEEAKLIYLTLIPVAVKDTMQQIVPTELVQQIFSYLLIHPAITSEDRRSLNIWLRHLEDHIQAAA
# assay procedure: ITC
pKd: −log10 of the molar value.

- binder: "VPSYGEDELQQAMRLLNAASRQRTEAANEDFGGT (peptide, UniProt P91682 970-1003, looked up) [Smoothened 970-1003 synthetic peptide]"
  pKd: 6.10
